Cited source for all entries: ChEMBL document CHEMBL3526058

- assay.summary: Plasma protein binding in beagle dog
- Format: ADME, cell-free, Canis lupus familiaris
- assay.context: read-out: PPB (converted)
assay.readout: fraction unbound

The compound identified as COc1ccc(-n2nc(C(N)=O)c3c2[14C](=O)N(c2ccc(N4CCCCC4=O)cc2)CC3)cc1 registered its fraction unbound at 0.08

###

- assay.summary: Cmax in wild-type bile duct-cannulated Sprague-Dawley rat at 2 mg/kg, iv
- Assay type: ADME, organism-based
- Set-up: dose 2 mg/kg, route intravenous
- assay.context: in vivo
assay.readout: Cmax (ng/mL)
# output: bare number, implied unit ng/mL

The compound identified as COc1ccc(-n2nc(C(N)=O)c3c2[14C](=O)N(c2ccc(N4CCCCC4=O)cc2)CC3)cc1 registered its Cmax at 2260
